protocolText: yeast display, Sf9 membrane polyspecificity reagent, FACS + sequencing; frameworks hold sequencing errors
recordedEndpoint: polyreactivity (PSR sort gate)

Example entries and their recorded answers appear below.
QVQLVESAGGLVQAGGSLRLSCAASGRTFGGYAMGWYRQAPGKERELVASITSGGSTYYADSVKGRFTISRDNAKNTVYLEMNSLKPEDTAVYYCAADTYFETSTRAIPSNDYWGQGTQVTVSS :: low polyreactivity
QVQLVESGGRLVQAGGSLRLSCAASGITFVYYAMGWYRQAPGKERELVASISSGGSTYYADSVKGRFTISRDNAKNTVYLQMNSLKPEDTAVYDCAAPTGWYPAYGEYEYWGQGTQVTVSS :: low polyreactivity
QVQLVESGGGLVQAGGSLRLSFAASGRIFYQYAMGWYRQAPGKERELVAAINSYGGRTYYADSVKGRFTISRDNAKYTVYLQMNSLKPEDTAVYYCAKLRVPYYAEYGYWGQGTQVTVSS :: high polyreactivity
QVLLQESGGGLVQAGGSLRLSCAASGNIFSAGGMGWYRQAPVNERELVAGIGTGTSTNYADSVKGRFTISRDNANNTVYLQMNSLKPEDTAVYYCAAAYYSGLSHWYWGQGTQVTVSS :: low polyreactivity

Turning to the following sequence.
What value of polyreactivity (PSR sort gate) has been reported for the following sequence? QFQLVESGGGLVQAGGSLRLSCAASGLIFPKYAMGWYRQAPGKEREFVAAISGRGGTTYYADSVKGRFTISRDNAKNTVYLQMNSLKPEDTAVYYCAAGGPWANIYGNGYWGQGTQVTVSS
high polyreactivity

---

protocolText: yeast display, Sf9 membrane polyspecificity reagent, FACS + sequencing; frameworks hold sequencing errors
recordedEndpoint: polyreactivity (PSR sort gate)

QVQLVESGGGLVQAGGSLRLSCAASGRIFTGNAMGWYRQAPGKERELVAAISSRGGRTYYADSVKGRFTISRDNAKNTVYLQMNSLKPEDTAVYYCNAVAVAASRAYSWYDYWGQGTQVTVSS :: high polyreactivity
QVQLEESGGGLVQAGGSLRLSCAASGFIFFAYAMGWYRQAPGKERELVAAISRTGGSTYYADSVKGRFTISRDNAKNTVYLLMNSLKPEDTAVYYCAAVVSRTYQWWTYDYWGQGTQVTVSS :: high polyreactivity

---

protocolText: yeast display, Sf9 membrane polyspecificity reagent, FACS + sequencing; frameworks hold sequencing errors
recordedEndpoint: polyreactivity (PSR sort gate)

Previously resolved entries follow.
QVQLVESGGGLVQAGGSLRLSCAASGFIFNKYAMGWYRPAPGKERELVARITSSGSRTYYADSVKGRFTISRDKAKNTVYLQMISLKPEDTAVYYCNTYYHWLTMDYWGQGTQVTVSS :: high polyreactivity
QDQHVESGGGLVQAGGSLRLSCAASGFIFSQYAMGWYRQAPGKERELVAAISSGSTYADSVKGRFTISRDNAKNTVYLQMNSLKPEDTAVYYCAVDYHQAWPSADYWFEYDYWGQGTQVTVSS :: low polyreactivity
QVQLVESVGGLVQAGGSLRLSCAASGFIFSPYAMGWYRQAPGKERELVAAISWNGGRTYYADSVKGRFTISRDYAKNTVYLQMNSLKPEDTAVYYCAASFRNPYSHGYWGQGTQVTVSS :: high polyreactivity
QVQLVESGGGLVQAGGSLRLSCAASGSIIVRYAMGWYRQAPGKERELVASISKRGGSTYYADSVKGRFTISRDNAKNTVYLQMNSLKPEDTAVYYCAARVVTRVRGVGYNYWGQGTQVTVSS :: high polyreactivity
QVQLVESGGGLVQAGGSLRLSCAASVFTFNDYAMGWYRQAPGKERELVAAIDWSGGRTYYADSVKGRFTISRDNAKNTVYLQMNSLKPEDTAVYYCAAVLYSRLYWYRLDYWGQGTQVTVSS :: low polyreactivity

Name the reported polyreactivity (PSR sort gate) value associated with the sequence QVQLVESGGGLVQAGGSLRFSCAASGSTFQYYAMGWYRQAPGKERELVAAISYGGSRTYYADSVKGRFTISRDNAKNTVYLQMNSLKPEDTAVYYCANEKYRALAPYYYWGQGTQVTVSS
high polyreactivity

Param item = QVQLVESGGGLVQAGGSLRLSCAASGLTFGTYAMGWYRQAPGKERELVAAISGTGGTTYYADSVKGRFTISRDNAKNTVYLKMNSLKPEDTAVYYCNKRWRRPYPYDYWGQGTQVTVSS ; retrieve measured polyreactivity (PSR sort gate).
high polyreactivity

Which polyreactivity (PSR sort gate) value belongs to QVQLVESGGCLVQAGGSLRLSCAASGSTSDIYARGWYSPAPGKEREFVAARSLTGGTTYYAASVKGRFTISCDNAKNTVYLQMNSLKPEDTAVYYCNADVGWWGYDDDYWGQGTQVTVSS ?
high polyreactivity

Request the reported polyreactivity (PSR sort gate) associated with QVQLVESGGGLVQAGGSLRLSCAASGRTFDRYAMGWYRQAPGKERELVAAITWSGGRTYYADSVKGRFTISRDNAKNTVYLQMNSLKPEDTAVYYCAADDPRDHWYTAMDYWGQGTQVTVSS
low polyreactivity

Please report the recorded polyreactivity (PSR sort gate) for QVQLVESGGGLVQAGGSLRLSCAATGRIFIDNTMGWYRQAPGKERELVAAISWSGGSTYYADSVKGRFTISRDNAKNTVYLQMNCLKPEDTAVYYCAARRLRSNGRTWAVTYDYWGQGTQVTVSS .
low polyreactivity

Tell me the measured polyreactivity (PSR sort gate) of QIQLVESGGGLVQAGGSLRLSCAASGGIFYINAMGWYRQAPGKERELVAAITESSDITYYADSVKGRFTISRDNAKNSVYLQINSLKPEDTAVYYCAAEFVRSGDDYWGQGTQVTVSS , please.
low polyreactivity

// lookup polyreactivity (PSR sort gate) for QVQLVESGGGLVQAGGSLRLSCAASGIIFAYYDMGLYRKAPGKERELVAAISSTGSNTYYADSVKGRFTISRDNAKNTVYLQMNSLKPEDTAVYYCAAGYAYYIGHGDYWGQGTQVTVSS
high polyreactivity

The reported measurements were obtained from the nanobody polyreactivity screen of Harvey et al. (2022).
